Each item that follows carries a reported growth inhibition.
Assay: NCI Yeast Anticancer Drug Screen. Data for the rad50 strain (AID 155);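 also: 0% = growth of vehicle-only cultures of the same strain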
Details: S. cerevisiae rad50 strain growth inhibition; at 50.0 µM; stronger effect = higher value
The panel holds about 79,000 compounds, 15% with a hit somewhere; the sample as a whole holds those more often.
Give the quantity in %, number only.

[
  {
    "Molecule": "C/C=C/C=C\\C1OC(O)([C@H](CC)C(=O)NC/C=C/C=C(\\C)[C@H](OC)C(C)C2OC(\\C=C/C=C/C=C(\\C)C(=O)c3c(O)ccn(C)c3=O)[C@H](O)[C@@H]2O)C(O)C(O)C1(C)C (stereo partly drawn)",
    "growth inhibition / %": 35.5
  }
]

Please give the measured growth inhibition for this molecule: C/C(=N\NC(N)=S)c1ccc(C2CCCCC2)cc1
97.2

###

Assay: NCI Yeast Anticancer Drug Screen. Data for the rad50 strain (AID 155);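 also: 0% = growth of vehicle-only cultures of the same strain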
Details: S. cerevisiae rad50 strain growth inhibition; at 5.0 µM (retest, dose inferred, filed as 0.5); stronger effect = higher value
About 79,000 compounds went through this panel and 15% of them were active in at least one assay; those are over-represented in the sample as a whole. Where a SMILES comes first, the peptide text is derived from it. Bridges are numbered along the chain shown (N, C = ends). [ ]: non-standard residue; d: D form. NMeV = CN[CH](C(=O)O)C(C)C; Sar = CNCC(=O)O
Measured quantity: growth inhibition (%)
Give the quantity in %, number only.

For orientation, consider the following solved cases.
[
  {
    "Compound": "CC(=O)OC1=CC(n2cc(F)c(=O)[nH]c2=O)OC(C)C1=O (stereo not drawn)",
    "Unit": "%",
    "growth inhibition": 23
  },
  {
    "Compound": "CC(C)c1ccc2c(c1)CCC1C(C)(C(=O)O)CCCC21C (stereo not drawn)",
    "Unit": "%",
    "growth inhibition": 11
  },
  {
    "Compound": "O=C(Nc1ccccc1[N+](=O)[O-])/C(=N/Nc1cccc(Cl)c1)c1c(O)c2ccccc2oc1=O",
    "Unit": "%",
    "growth inhibition": 29
  },
  {
    "Compound": "O=c1c(-c2ccccc2)c(-c2ccccc2)c1=O",
    "Unit": "%",
    "growth inhibition": -98
  },
  {
    "Compound": "COc1ccc(CCNC(=S)/N=C\\C(C(=O)c2ccccc2)=C(\\O)c2ccccc2)cc1OC",
    "Unit": "%",
    "growth inhibition": 1
  }
]

Please give the measured growth inhibition for this compound: Nc1ccc2c(c1)NCCN2
42

Please give the measured growth inhibition for this compound: Cc1ccc(C)c(C(=O)CCN)c1
-2

Please give the measured growth inhibition for this compound: O=c1cc(CSc2ccc(Cl)cc2)occ1O
3

Please give the measured growth inhibition for this compound: CCCCCCCC/C=C\CCCCCCCC(=O)NCC[N+](C)(C)C
48

Please give the measured growth inhibition for this compound: CC(C)C1NC(=O)C(N)C(C)OC(=O)C(C(C)C)N(C)C(=O)CN(C)C(=O)C2CCCN2C1=O (stereo not drawn) (tested in a mixture with another compound) (H-TVP[Sar][NMeV]; ester 1-C; configuration not given here)
21

Please give the measured growth inhibition for this compound: CCCCCC(C1SC(=S)NC1=O)C1SC(=S)NC1=O (stereo not drawn)
1

Please give the measured growth inhibition for this compound: CCOC(=O)/C(C#N)=C\c1ccc(N(CCC(=O)O)CCC(=O)O)c(I)c1
1

Please give the measured growth inhibition for this compound: COc1ccc(C2=C(Cl)C(=O)N(c3ccc(C)cc3)C(=O)C2(Cl)Cl)cc1
14

Please give the measured growth inhibition for this compound: CC(C)NC(=O)OCCS(=O)c1c(Cl)c(Cl)nn1C (stereo not drawn)
-15

###

Test: NCI Yeast Anticancer Drug Screen. Data for the sgs1 mgt1 strain (AID 161);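 also: 0% = growth of cultures given vehicle only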
Settings: S. cerevisiae sgs1 mgt1 strain, at 50.0 µM (retest, dose inferred, filed as 5.0)
The panel holds about 79,000 compounds, 15% with a hit somewhere; the sample as a whole holds those more often. Active and inactive are the calls of the source. Cut-off read from the data, not from the text of the source: active = growth inhibition above about 70%; inactive = the rest.
Field 'call' accepts T (active), F (inactive)

Worked set:
[
  {
    "Molecule": "CC(C)(C)c1ccc(O)c(O)c1",
    "Assigned label": "F"
  },
  {
    "Molecule": "CCCCCCC[CH2][Sn]([CH2]CCCCCCC)([O]c1cccc2cccnc12)[O]c1cccc2cccnc12",
    "Assigned label": "F"
  },
  {
    "Molecule": "CCCCCCCCCCCCCCCCCC(=O)OC(C)CCC1CCCO1 (stereo not drawn)",
    "Assigned label": "F"
  },
  {
    "Molecule": "O=C(CN1CCOCC1)Nc1nc(-c2ccc(Cl)cc2)cs1",
    "Assigned label": "T"
  }
]

Record lookup: outcome of this test for O=C1c2ccccc2C(=O)N1/N=C\c1ccccc1[N+](=O)[O-] ?
T

Record lookup: outcome of this test for COc1ccc(C(=O)C(C(c2ccccc2)N2CCc3ccccc3C2)N2CCc3ccccc3C2)cc1 (stereo not drawn) ?
F

Record lookup: outcome of this test for CCCCCCCCCC1OCC(C)O1 (stereo not drawn) ?
F

Record lookup: outcome of this test for O=C(O)c1c([N+](=O)[O-])cc(C(F)(F)F)cc1[N+](=O)[O-] ?
F

Record lookup: outcome of this test for CCOc1ccccc1C(=O)OCc1ccccc1 ?
F

###

Experiment: NCI Yeast Anticancer Drug Screen. Data for the bub3 strain (AID 167)
Conditions: S. cerevisiae bub3 mutant strain, at 50.0 µM (retest, dose inferred, filed as 5.0)
Experimental: Growth inhibition of yeast strains with defined genetic alterations is measured as a screen for potential anti-cancer activity. Selected strains with alterations in DNA damage repair or cell cycle control were exposed to compounds and growth inhibition was measured relative to vehicle treated controls. The strain used in this assay is bub3
This is part of a sample that, as a whole, favours compounds with a hit. Of some 79,000 tested, about 15% had one in any assay. Activity calls are given as the source filed them. Cut-off read from the data, not from the text of the source: active = growth inhibition above about 70%; inactive = the rest.
Field 'call' accepts active, inactive

Worked set:
[
  {
    "Molecule": "CC1(C)NC(=O)C(C)(C)NC1=O",
    "Assigned label": "inactive"
  },
  {
    "Molecule": "Nc1ccc(C(=O)/C=C/c2ccccn2)cc1",
    "Assigned label": "active"
  },
  {
    "Molecule": "CCN(CC)C(=S)N=Nc1c(O)[nH]c2ccccc12",
    "Assigned label": "active"
  }
]

Record lookup: outcome of this test for CC1=C(C(=O)Nc2cccc(Cl)c2)C(c2ccccc2F)C(C(=O)Nc2cccc(Cl)c2)=C(C)N1 ?
inactive

###

Test: NCI Yeast Anticancer Drug Screen. Data for the cln2 rad14 strain (AID 165);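 also: 0% = growth equal to vehicle treated cultures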
Conditions: S. cerevisiae cln2 rad14 strain, at 5.0 µM (retest, dose inferred, filed as 0.5), stronger effect = higher value
The panel holds about 79,000 compounds, 15% with a hit somewhere; the sample as a whole holds those more often. Where a SMILES comes first, the peptide text is derived from it. [ ]: non-standard residue; d: D form. Nva = CCC[CH](N)C(=O)O
Measured quantity: growth inhibition (%)
Give the quantity in %, number only.

For orientation, consider the following solved cases.
[
  {
    "Molecule": "O=[N+]([O-])c1ccc(O)c(-c2ccccc2)c1",
    "growth inhibition [%]": 6
  },
  {
    "Molecule": "CCCC(N)C(=O)NC(C(=O)O)C(C)C (stereo not given) (H-[Nva]-Val-OH; configuration not given here)",
    "growth inhibition [%]": 1
  },
  {
    "Molecule": "CC(=O)Oc1c(Br)ccc2cc(C(Br)Br)c(C(=O)c3ccccc3)nc12",
    "growth inhibition [%]": 30
  },
  {
    "Molecule": "CN=S(=O)(OCCCCCCCCCOS(=O)(=NC)c1ccc(C)cc1)c1ccc(C)cc1 (stereo not given)",
    "growth inhibition [%]": 29
  },
  {
    "Molecule": "O=CC1(c2ccc(Cl)cc2)NC(=O)NC1=O (stereo not given)",
    "growth inhibition [%]": 3
  },
  {
    "Molecule": "CCOC(=O)c1ccc(-c2cccs2)n1C",
    "growth inhibition [%]": 28
  },
  {
    "Molecule": "Cc1cc(=O)[nH]c2cc3oc4ccccc4c3cc12",
    "growth inhibition [%]": 9
  },
  {
    "Molecule": "CSc1ccc(/C=C2\\CN(C)C/C(=C\\c3ccc(SC)cc3)C2=O)cc1",
    "growth inhibition [%]": 34
  },
  {
    "Molecule": "CCOC(=O)N1CCN(CCCCCCOc2c(Cl)cc(Cl)cc2Cl)CC1",
    "growth inhibition [%]": 58
  }
]

We now examine a further molecule.
Please give the measured growth inhibition for this molecule: C1CCC2[N-]CC3CCCCC3[N-]CC3CCCCC3[N-]CC3CCCCC3[N-]CC2C1.[Cl][Fe]([Cl])([Cl])[Cl].[Fe+6] (stereo not given)
0

###

Experiment: NCI Yeast Anticancer Drug Screen. Data for the mlh1 rad18 strain (AID 175)
Conditions: S. cerevisiae mlh1 rad18 strain growth inhibition; at 50.0 µM; stronger effect = higher value
About 79,000 compounds went through this panel and 15% of them were active in at least one assay; those are over-represented in the sample as a whole.
Label MET when growth inhibition >= 70%; otherwise NOT MET.

Worked set:
[
  {
    "Compound": "CCOC(=O)C1SC(=Nc2cccc(Cl)c2C)N=C1C (centres undefined)",
    "Assigned label": "MET"
  },
  {
    "Compound": "Cc1ccc(C2=Nc3c(c(C)nn3-c3ccccc3)N=C(C(=O)O)C2)cc1",
    "Assigned label": "NOT MET"
  },
  {
    "Compound": "Cc1cc(Nc2ccc(O)c(CN3CCN(Cc4cc(Nc5cc(C)nc(N)n5)ccc4O)CC3)c2)nc(N)n1",
    "Assigned label": "MET"
  },
  {
    "Compound": "C=C1CC2(CCS(=O)(=O)c3ccccc32)OC1=O (centres undefined)",
    "Assigned label": "NOT MET"
  },
  {
    "Compound": "COc1cc(Nc2ccc(O)cc2)c2ncccc2c1",
    "Assigned label": "MET"
  },
  {
    "Compound": "OC(CN1CCc2ccccc2C1)c1ccc2ccccc2c1 (centres undefined)",
    "Assigned label": "NOT MET"
  },
  {
    "Compound": "c1ccc(N2CCN(c3ccccc3)C2Cc2c[nH]c3ccccc23)cc1",
    "Assigned label": "MET"
  },
  {
    "Compound": "C#CCN1CCN(C(=S)N/N=C(\\C)c2ccccn2)CC1",
    "Assigned label": "MET"
  },
  {
    "Compound": "O=C1c2cccc(O)c2C(=O)c2c(O)cc(CO)cc21",
    "Assigned label": "MET"
  },
  {
    "Compound": "C=CCNC(=S)N/N=C(\\CCC)c1ccccn1",
    "Assigned label": "NOT MET"
  }
]

Given the entry COc1ccc(CCCCI)cc1 , answer whether its growth inhibition meets or surpasses 70%.
MET

Given the entry COc1ccc2ccccc2c1-c1c(O)ccc2ccccc12 , answer whether its growth inhibition meets or surpasses 70%.
MET
